Data credit: paper PMC5920042

- assay_protocol: Single dose pharmacokinetics and bioavailability study
- Type: in vivo, male C57BL/6 mice
- experimental_parameters: male, C57BL/6, liver, po; mouse, KH176 10 mg/kg p.o.; read-out: Liver to Plasma ratio, range (1–8 hours)

# cpd_smiles, Kp
measured = [
    ("Cc1c(C)c2c(c(C)c1O)CC[C@@](C)(C(=O)N[C@@H]1CCCNC1)O2.Cl", "5.7 to 12.1"),
]

* * *

- assay_protocol: 28-day repeat oral dose toxicity study, toxicokinetics
- Format: in vivo, Beagle dogs
- experimental_parameters: male, Beagle, dog, plasma, po, 10 mg/kg, KH176 10 mg/kg/dose BID oral, M, Day 28, plasma, read-out: AUC0–24 h
endpoint: AUC(0-t) (ng·h/mL)

# compound, endpoint, display_unit, test_result
data = [
    ("Cc1c(C)c2c(c(C)c1O)CC[C@@](C)(C(=O)N[C@@H]1CCCNC1)O2.Cl [KH176]", "AUC(0-t)", "ng·h/mL", 19000),
]

* * *

- assay_protocol: 28-day repeat oral dose toxicity study, toxicokinetics
- Type: in vivo, Sprague Dawley rats
- experimental_parameters: female, Sprague Dawley, rat, plasma, po, 25 mg/kg, KH176 25 mg/kg/dose BID oral, F, Day 28, plasma, read-out: AUC0–24 h
endpoint: AUC(0-t) (µg·h/mL)

# cpd_smiles, display_unit, test_result
rows = [
    ("Cc1c(C)c2c(c(C)c1O)CC[C@@](C)(C(=O)N[C@@H]1CCCNC1)O2.Cl", "µg·h/mL", 19),
]

* * *

- assay_protocol: 28-day repeat oral dose toxicity study, toxicokinetics
- Type: in vivo, Beagle dogs
- experimental_parameters: female, Beagle, dog, plasma, po, 10 mg/kg, KH176 10 mg/kg/dose BID oral, F, Day 28, plasma

# compound, half-life / h
rows = [
    ("Cc1c(C)c2c(c(C)c1O)CC[C@@](C)(C(=O)N[C@@H]1CCCNC1)O2.Cl [KH176]", 2),
]

* * *

- assay_protocol: Single dose pharmacokinetics and bioavailability study
- Type: in vivo, male C57BL/6 mice
- experimental_parameters: male, C57BL/6, iv; mouse, KH176 2 mg/kg i.v., plasma, back extrapolated

# cpd_smiles, display_unit, C0
data = [
    ("Cc1c(C)c2c(c(C)c1O)CC[C@@](C)(C(=O)N[C@@H]1CCCNC1)O2.Cl", "ng/mL", 543),
]

* * *

- assay_protocol: 28-day repeat oral dose toxicity study, toxicokinetics
- Type: in vivo, Beagle dogs
- experimental_parameters: male, Beagle, dog, plasma, po, 62.5 mg/kg, KH176 62.5 mg/kg/dose BID oral, M, Day 1, plasma, read-out: Cmax
endpoint: Cmax

# cpd_smiles, test_result
data = [
    ("Cc1c(C)c2c(c(C)c1O)CC[C@@](C)(C(=O)N[C@@H]1CCCNC1)O2.Cl", "10100 ng/mL"),
]

* * *

- assay_protocol: 28-day repeat oral dose toxicity study, toxicokinetics
- Type: in vivo, Beagle dogs
- experimental_parameters: female, Beagle, dog, plasma, po, 10 mg/kg, KH176 10 mg/kg/dose BID oral, F, Day 28, plasma, read-out: AUC0–24 h
endpoint: AUC(0-t) (ng·h/mL)

# compound, display_unit, test_result
measured = [
    ("Cc1c(C)c2c(c(C)c1O)CC[C@@](C)(C(=O)N[C@@H]1CCCNC1)O2.Cl [KH176]", "ng·h/mL", 14600),
]

* * *

- assay_protocol: 28-day repeat oral dose toxicity study, toxicokinetics
- Format: in vivo, Sprague Dawley rats
- experimental_parameters: male, Sprague Dawley, rat, plasma, po, 250 mg/kg, KH176 250 mg/kg/dose BID oral, M, Day 28, plasma
endpoint: half-life

# cpd_smiles, endpoint, test_result
data = [
    ("Cc1c(C)c2c(c(C)c1O)CC[C@@](C)(C(=O)N[C@@H]1CCCNC1)O2.Cl", "half-life", "8.3 h"),
]

* * *

- assay_protocol: Single dose pharmacokinetics and bioavailability study
- Type: in vivo, male Sprague Dawley rats
- experimental_parameters: male, Sprague Dawley, iv; rat, KH176 2 mg/kg i.v., plasma
endpoint: clearance (mL/min/kg)

# cpd_smiles, test_result
records = [
    ("Cc1c(C)c2c(c(C)c1O)CC[C@@](C)(C(=O)N[C@@H]1CCCNC1)O2.Cl", 64.6),
]

* * *

- assay_protocol: Single dose pharmacokinetics and bioavailability study
- Type: in vivo, male Sprague Dawley rats
- experimental_parameters: male, Sprague Dawley, plasma, oral; rat, 10 mg/kg p.o. vs 2 mg/kg i.v., from AUClast; read-out: F (oral bioavailability)

# cpd_smiles, bioavailability / %
records = [
    ("Cc1c(C)c2c(c(C)c1O)CC[C@@](C)(C(=O)N[C@@H]1CCCNC1)O2.Cl", 74),
]

* * *

- assay_protocol: 28-day repeat oral dose toxicity study, toxicokinetics
- Type: in vivo, Beagle dogs
- experimental_parameters: female, Beagle, dog, plasma, po, 62.5 mg/kg, KH176 62.5 mg/kg/dose BID oral, F, Day 1, plasma

# cpd_smiles, half-life / h
measured = [
    ("Cc1c(C)c2c(c(C)c1O)CC[C@@](C)(C(=O)N[C@@H]1CCCNC1)O2.Cl", 1.7),
]

* * *

- assay_protocol: 28-day repeat oral dose toxicity study, toxicokinetics
- Format: in vivo, Beagle dogs
- experimental_parameters: male, Beagle, dog, plasma, po, 10 mg/kg, KH176 10 mg/kg/dose BID oral, M, Day 28, plasma
endpoint: half-life (h)

# cpd_smiles, endpoint, test_result
records = [
    ("Cc1c(C)c2c(c(C)c1O)CC[C@@](C)(C(=O)N[C@@H]1CCCNC1)O2.Cl", "half-life", 1.8),
]

* * *

- assay_protocol: Single dose pharmacokinetics and bioavailability study
- Assay type: in vivo, male C57BL/6 mice
- experimental_parameters: male, C57BL/6, heart, iv; mouse, KH176 2 mg/kg i.v.; read-out: Heart to Plasma ratio, range (1–8 hours)
endpoint: Kp

# cpd_smiles, test_result
records = [
    ("Cc1c(C)c2c(c(C)c1O)CC[C@@](C)(C(=O)N[C@@H]1CCCNC1)O2.Cl", "4.3 to 28.3"),
]

* * *

- assay_protocol: Single dose pharmacokinetics and bioavailability study
- Assay type: in vivo, male C57BL/6 mice
- experimental_parameters: male, C57BL/6, liver, iv; mouse, KH176 2 mg/kg i.v.; read-out: Liver to Plasma ratio, range (1–8 hours)
- Protocol: Pharmacokinetics and toxicokinetics measurements were performed by the commercial Contract Research Organizations Sai Life Sciences and WuXi AppTec, respectively, according to their standard protocols and in accordance with relevant guidelines and regulations. C57 BL/6 mice, Sprague Dawley rats, and Beagle dogs were studied.

# cpd_smiles, Kp
measured = [
    ("Cc1c(C)c2c(c(C)c1O)CC[C@@](C)(C(=O)N[C@@H]1CCCNC1)O2.Cl", "10.5 to 29.3"),
]

* * *

- Tested on: primary human skin fibroblasts
- assay_protocol: CumOOH induced lipid peroxidation (bodipy 581/591 C11)
- Assay type: cell-based
- experimental_parameters: 30 µM cumOOH, bodipy 581/591 C11
endpoint: IC50 (µM)

# compound, display_unit, test_result
data = [
    ("CC1=C(C)C(=O)C(CC[C@](C)(O)C(=O)N[C@@H]2CCCNC2)=C(C)C1=O [KH176m]", "µM", 0.071),
]

* * *

- assay_protocol: Single dose pharmacokinetics and bioavailability study
- Assay type: in vivo, male C57BL/6 mice
- experimental_parameters: male, C57BL/6, iv; mouse, KH176 2 mg/kg i.v., plasma
endpoint: AUC(0-t) (ng·h/mL)

# cpd_smiles, test_result
measured = [
    ("Cc1c(C)c2c(c(C)c1O)CC[C@@](C)(C(=O)N[C@@H]1CCCNC1)O2.Cl", 181),
]

* * *

- assay_protocol: 28-day repeat oral dose toxicity study, toxicokinetics
- Assay type: in vivo, Beagle dogs
- experimental_parameters: female, Beagle, dog, plasma, po, 62.5 mg/kg, KH176 62.5 mg/kg/dose BID oral, F, Day 1, plasma, read-out: AUC0–24 h

# cpd_smiles, display_unit, AUC(0-t)
records = [
    ("Cc1c(C)c2c(c(C)c1O)CC[C@@](C)(C(=O)N[C@@H]1CCCNC1)O2.Cl", "ng·h/mL", 63100),
]

* * *

- assay_protocol: Single dose pharmacokinetics and bioavailability study
- Format: in vivo, male C57BL/6 mice
- experimental_parameters: male, C57BL/6, iv; mouse, KH176 2 mg/kg i.v., plasma

# cpd_smiles, AUC(0-inf)
measured = [
    ("Cc1c(C)c2c(c(C)c1O)CC[C@@](C)(C(=O)N[C@@H]1CCCNC1)O2.Cl", "191 ng·h/mL"),
]

* * *

- assay_protocol: 28-day repeat oral dose toxicity study, toxicokinetics
- Type: in vivo, Beagle dogs
- experimental_parameters: female, Beagle, dog, plasma, po, 10 mg/kg, KH176 10 mg/kg/dose BID oral, F, Day 1, plasma, read-out: Cmax

# cpd_smiles, Cmax
data = [
    ("Cc1c(C)c2c(c(C)c1O)CC[C@@](C)(C(=O)N[C@@H]1CCCNC1)O2.Cl", "1150 ng/mL"),
]
